Data origin: ChEMBL document CHEMBL3421577

The following compounds are listed with their measured pIC50 values.
molecular target: Metabotropic glutamate receptor 1 (Homo sapiens, UniProt Q13255); test: Antagonist activity at human mGluR1 expressed in human Chem-3 cells assessed as inhibition of L-glutamate-induced calcium release by calcium-5 reagent-based fluorescence assay
Sequence (Q13255 whole entry): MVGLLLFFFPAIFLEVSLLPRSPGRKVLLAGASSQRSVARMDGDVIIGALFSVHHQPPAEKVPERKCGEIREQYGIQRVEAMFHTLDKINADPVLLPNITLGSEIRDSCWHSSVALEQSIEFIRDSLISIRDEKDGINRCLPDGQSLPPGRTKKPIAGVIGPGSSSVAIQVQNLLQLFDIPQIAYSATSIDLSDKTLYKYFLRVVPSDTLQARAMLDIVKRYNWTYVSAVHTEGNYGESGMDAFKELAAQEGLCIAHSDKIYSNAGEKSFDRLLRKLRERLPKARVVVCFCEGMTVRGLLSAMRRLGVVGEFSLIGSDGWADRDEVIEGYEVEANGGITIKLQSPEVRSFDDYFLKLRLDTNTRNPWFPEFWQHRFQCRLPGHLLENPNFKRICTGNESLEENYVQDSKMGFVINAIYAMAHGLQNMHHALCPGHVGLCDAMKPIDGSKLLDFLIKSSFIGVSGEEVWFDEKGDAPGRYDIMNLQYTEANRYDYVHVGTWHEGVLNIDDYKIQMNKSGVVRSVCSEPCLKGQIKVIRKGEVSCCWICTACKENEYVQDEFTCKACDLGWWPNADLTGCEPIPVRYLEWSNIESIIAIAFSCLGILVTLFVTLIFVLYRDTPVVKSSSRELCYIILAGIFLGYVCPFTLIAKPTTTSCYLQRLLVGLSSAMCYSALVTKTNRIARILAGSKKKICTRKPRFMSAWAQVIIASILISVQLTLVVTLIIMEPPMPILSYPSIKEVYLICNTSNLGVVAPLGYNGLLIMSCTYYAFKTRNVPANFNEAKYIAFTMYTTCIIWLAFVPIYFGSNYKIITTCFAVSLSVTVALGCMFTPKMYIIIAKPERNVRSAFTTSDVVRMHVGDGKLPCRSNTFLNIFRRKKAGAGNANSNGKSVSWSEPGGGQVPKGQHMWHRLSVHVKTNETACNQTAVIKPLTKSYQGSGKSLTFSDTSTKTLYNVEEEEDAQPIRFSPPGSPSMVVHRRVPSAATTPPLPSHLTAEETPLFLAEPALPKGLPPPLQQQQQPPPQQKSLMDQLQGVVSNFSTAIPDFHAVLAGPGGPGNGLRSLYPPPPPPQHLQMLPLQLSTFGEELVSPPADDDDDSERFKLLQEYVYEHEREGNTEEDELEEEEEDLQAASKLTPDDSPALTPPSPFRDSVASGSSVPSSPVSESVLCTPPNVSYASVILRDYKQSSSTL
Expect pIC50 as a plain number equal to -log10 of the molar concentration.

Example compounds with recorded pIC50:
> print(dat)
                                 cpd.smiles                                       tgt  measure.name  endpoint.result
1  Cc1cc(C(=O)N2CCc3c(sc(NCc4ccccc4)c3C#N)C2)[nH]n1  Metabotropic glutamate receptor 1 (Homo sapiens, UniProt Q13255)         pIC50             5.85
2  COc1cccc(CNc2sc3c(c2C#N)CCN(C(=O)c2ccc(F)cc2)C3)c1  Metabotropic glutamate receptor 1 (Homo sapiens, UniProt Q13255)         pIC50             5.51
3  N#Cc1c(NCc2ccccc2)sc2c1CCN(C(=O)c1cccc(F)c1)C2  Metabotropic glutamate receptor 1 (Homo sapiens, UniProt Q13255)         pIC50             5.54
4  CC(C)c1cc(C(=O)N2CCc3c(sc(NCc4ccccc4)c3C#N)C2)[nH]n1  Metabotropic glutamate receptor 1 (Homo sapiens, UniProt Q13255)         pIC50             4.36
5  Cc1ccc(C(=O)N2CCc3c(sc(NCc4ccccc4)c3C#N)C2)cc1  Metabotropic glutamate receptor 1 (Homo sapiens, UniProt Q13255)         pIC50             5.33
6  N#Cc1c(NCc2cccc(F)c2)sc2c1CCN(C(=O)c1ccccc1)C2  Metabotropic glutamate receptor 1 (Homo sapiens, UniProt Q13255)         pIC50             5.27
7  N#Cc1c(NCc2ccc(F)cc2)sc2c1CCN(C(=O)c1ccn[nH]1)C2  Metabotropic glutamate receptor 1 (Homo sapiens, UniProt Q13255)         pIC50             5.69
8  N#Cc1c(NCc2ccccc2)sc2c1CCN(C(=O)c1ccccc1)C2  Metabotropic glutamate receptor 1 (Homo sapiens, UniProt Q13255)         pIC50             5.55

Prompt line: Short answer please: pIC50, Metabotropic glutamate receptor 1 (Homo sapiens, UniProt Q13255), entry N#Cc1c(NCc2ccccc2)sc2c1CCN(C(=O)c1ccn[nH]1)C2
Response line: 5.96

Prompt line: Lookup N#Cc1c(NCc2cccc(F)c2)sc2c1CCN(C(=O)c1ccc(F)cc1)C2
Response line: 5.62

Prompt line: What do you have for N#Cc1c(NCc2ccccc2)sc2c1CCN(C(=O)c1cnccc1F)C2 ?
Response line: 5.91

Prompt line: Also CC(C)c1cc(C(=O)N2CCc3c(sc(NC(=O)c4ccc(Cl)cc4)c3C#N)C2)[nH]n1 ?
Response line: 4.91

Prompt line: Same lookup for Cc1cc(C(=O)N2CCc3c(sc(NCc4ccc(F)cc4)c3C#N)C2)[nH]n1 , please.
Response line: 5.61

Prompt line: What would you report for N#Cc1c(NCc2ccc(F)cc2)sc2c1CCN(C(=O)c1ccccc1)C2 ?
Response line: 5.74

Prompt line: Also need Cc1cccc(C(=O)N2CCc3c(sc(NCc4ccccc4)c3C#N)C2)c1 , thanks.
Response line: 5.50

Prompt line: Now consider N#Cc1c(NCc2ccccc2)sc2c1CCN(C(=O)c1ccc(F)cc1)C2 .
Response line: 6.22
